pIC50: −log10 of the molar value. Where a name gives a salt, the structure may show the parent alone.
Hi! I'm sharing some pIC50 results obtained with human c-Met (Homo sapiens, UniProt P08581).
Sequence (P08581 25-1390): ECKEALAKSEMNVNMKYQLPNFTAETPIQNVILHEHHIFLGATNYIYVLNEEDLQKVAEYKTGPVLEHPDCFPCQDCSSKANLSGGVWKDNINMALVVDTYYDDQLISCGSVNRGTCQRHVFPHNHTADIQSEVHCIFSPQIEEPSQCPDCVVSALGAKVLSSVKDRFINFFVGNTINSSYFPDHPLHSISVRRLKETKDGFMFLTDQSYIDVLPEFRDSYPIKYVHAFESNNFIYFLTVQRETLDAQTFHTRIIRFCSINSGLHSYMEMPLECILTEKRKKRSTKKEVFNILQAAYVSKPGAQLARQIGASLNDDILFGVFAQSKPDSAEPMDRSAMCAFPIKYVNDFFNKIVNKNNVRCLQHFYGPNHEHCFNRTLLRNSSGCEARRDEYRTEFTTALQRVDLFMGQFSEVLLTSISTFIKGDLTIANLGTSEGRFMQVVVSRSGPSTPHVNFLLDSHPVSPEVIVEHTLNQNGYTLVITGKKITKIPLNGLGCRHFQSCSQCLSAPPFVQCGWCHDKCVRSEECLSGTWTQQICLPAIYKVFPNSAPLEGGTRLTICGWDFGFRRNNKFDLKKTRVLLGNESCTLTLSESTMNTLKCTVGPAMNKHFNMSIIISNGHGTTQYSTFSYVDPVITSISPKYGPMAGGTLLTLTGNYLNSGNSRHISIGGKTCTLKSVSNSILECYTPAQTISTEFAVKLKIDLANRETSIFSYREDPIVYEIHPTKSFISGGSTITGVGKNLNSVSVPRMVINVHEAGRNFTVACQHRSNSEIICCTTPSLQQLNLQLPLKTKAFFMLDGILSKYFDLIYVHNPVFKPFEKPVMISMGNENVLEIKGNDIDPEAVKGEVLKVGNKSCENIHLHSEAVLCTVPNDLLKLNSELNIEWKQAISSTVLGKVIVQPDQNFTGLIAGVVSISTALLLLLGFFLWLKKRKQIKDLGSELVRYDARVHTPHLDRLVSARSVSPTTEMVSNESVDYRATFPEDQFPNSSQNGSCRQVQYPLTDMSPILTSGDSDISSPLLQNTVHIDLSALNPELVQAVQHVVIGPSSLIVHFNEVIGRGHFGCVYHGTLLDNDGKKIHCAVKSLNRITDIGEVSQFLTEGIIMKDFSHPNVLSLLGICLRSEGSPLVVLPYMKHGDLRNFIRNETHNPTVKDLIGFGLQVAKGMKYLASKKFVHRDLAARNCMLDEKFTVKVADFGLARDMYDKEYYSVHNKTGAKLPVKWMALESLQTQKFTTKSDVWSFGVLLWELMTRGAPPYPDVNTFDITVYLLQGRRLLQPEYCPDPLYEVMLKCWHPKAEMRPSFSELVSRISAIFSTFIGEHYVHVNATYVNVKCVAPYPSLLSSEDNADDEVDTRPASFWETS
measurement name: pIC50

Reference set (2 entries):
> print(dat)
                                   compound  readout.number
1  COc1ccc(F)c(Cc2c[nH]c3ncc(-c4cnn(C5CCNCC5)c4)cc23)c1F [Trifluoroacetate salt of embodiment 19]            8.24
2  COc1cc(OC)c(F)c(Cc2c[nH]c3ncc(-c4cnn(CCNC(C)C)c4)cc23)c1F [Hydrochloride of embodiment 68]            7.27

P = COc1cc(OC)c(F)c(Cc2c[nH]c3ncc(-c4cnn(C5CN(S(C)(=O)=O)C5)c4)cc23)c1F [Trifluoroacetate salt of embodiment 23]
Q = COc1cc(OC)c(F)c(Cc2c[nH]c3ncc(-c4cnn(C5CN(CCO)C5)c4)cc23)c1F [Trifluoroacetate salt of embodiment 27]
Parameter check: reported pIC50 is higher for which label, P or Q ? Mark your selection by writing its label. Q

a = CCN1CCC(n2cc(-c3cnc4[nH]cc(Cc5c(F)ccc(OC)c5F)c4c3)c(C)n2)CC1 [Trifluoroacetate salt of embodiment 39]
b = COc1cc(OC)c(F)c(Cc2c[nH]c3ncc(-c4ccc5c(c4)NC(=O)C54CCN(C)CC4)cc23)c1F [Trifluoroacetate salt of embodiment 56]
Looking at recorded values for pIC50, does a or b come in lower? Give the label under which the chosen entry appears. a
(a: 7.61, b: 8.11)
